# TARGET ENTITY: Soluble recombinant human urokinase receptor (suPAR) (human, UniProt Q03405 23-299, biotinylated in the plate assays (sites not given))
# Sequence (Q03405 23-299): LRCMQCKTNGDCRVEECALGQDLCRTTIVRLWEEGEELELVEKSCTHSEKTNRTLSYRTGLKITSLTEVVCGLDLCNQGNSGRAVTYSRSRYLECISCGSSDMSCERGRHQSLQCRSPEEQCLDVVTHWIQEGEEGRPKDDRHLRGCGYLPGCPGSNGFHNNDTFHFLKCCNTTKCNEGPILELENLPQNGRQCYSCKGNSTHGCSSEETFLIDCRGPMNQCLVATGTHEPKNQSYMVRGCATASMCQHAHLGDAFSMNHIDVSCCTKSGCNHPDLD
# PROTOCOL SUMMARY: uPAR receptor binding assay
Ends that are not written are not given here.
Listing of recorded pIC50 by entry.
Field pIC50 (float): negative decimal logarithm of the concentration in molar.

BINDER	pIC50
AEPMPHSLNFSQYLWYT-NH2 [Clone 20 peptide]	8.00

Query string: Item under review: CLNGGTAVSNKYFSNIHWCN [uPA13-32 peptide (amino acids 13-32 of human urokinase with Cys19 converted to Ala)] . Reported pIC50?
Result string: 6.60
